target.under.test: soluble IGF-1R (recombinant human IGF-1R extracellular domain, R&D Systems Cat. # 391-GR/CF) (human), P08069
assay.remarks: phage ELISA
No end group written: not given here.
measurement.label: IGF-1R/IR ratio comparison

VVTPVNFYRALEALVRGXRLG (not fully specified; printed as VVTPVNFYRALEALVRG.RLG; X: residue not identified in the source) [20E2B-2-B11-IGFR] : 9.4

I. RCGRWXAEMGAGDDPFYHKLSELVCG (not fully specified; X: residue not identified in the source; cysteine pairing not given here) [B6Hα-2-C4-IR]
II. CCLLCRFQQNFYDWFVCQGISRLRPL (modifications not checked) [H2CA-2-B4-IGFR]
III. CMMXDGFYAGLGCLLTAGEGR (not fully specified; printed as CMM.DGFYAGLGCLLTAGEGR; X: residue not identified in the source; cysteine pairing not given here) [20E2B-3-C11-IGFR]
INPUT: Rank by IGF-1R/IR ratio comparison (largest to smallest). I'd appreciate it if you listed the labels in the requested order.
OUTPUT: I, III, II
(I: 11, III: 7.5, II: 3.6)
